Ref: patent US10479780B2

Molecular target: human Yes1 enzyme (Homo sapiens)
Construct: made in house
Sequence (P07947 whole entry): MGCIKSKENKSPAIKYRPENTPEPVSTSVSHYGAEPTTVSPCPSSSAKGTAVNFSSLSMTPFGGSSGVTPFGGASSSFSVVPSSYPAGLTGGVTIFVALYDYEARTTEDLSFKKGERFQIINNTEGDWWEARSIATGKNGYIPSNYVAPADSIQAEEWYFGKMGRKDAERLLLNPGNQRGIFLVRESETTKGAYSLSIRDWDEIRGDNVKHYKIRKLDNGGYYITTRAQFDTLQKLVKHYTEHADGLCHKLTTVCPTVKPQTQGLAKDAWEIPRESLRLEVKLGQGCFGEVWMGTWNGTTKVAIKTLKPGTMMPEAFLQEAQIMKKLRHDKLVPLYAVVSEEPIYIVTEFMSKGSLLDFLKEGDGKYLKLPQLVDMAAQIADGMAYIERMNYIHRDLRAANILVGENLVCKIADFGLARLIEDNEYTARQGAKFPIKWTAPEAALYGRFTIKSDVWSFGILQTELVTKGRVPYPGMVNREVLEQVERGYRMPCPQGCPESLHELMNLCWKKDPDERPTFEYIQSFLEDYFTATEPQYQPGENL
Assay: Yes1 enzyme inhibitory activity (time-resolved fluorometry, biotinylated peptide phosphorylation)
Assay type: biochemical
Settings: biotinylated peptide phosphorylation, read-out: YES_IC50
Experimental: 1. Yes1 Enzyme Inhibitory Activity Yes1 inhibitory activity was determined based on activity of inhibiting phosphorylation reaction of a biotinylated peptide (EGPWLEEEEEAYGWMDF) using a human Yes1 enzyme prepared using a baculovirus expression system. The phosphorylated biotinylated peptide was detected by time-resolved fluorometry using an anti-phosphorylated tyrosine antibody conjugated to europium cryptate, and streptavidin conjugated to XL665, an allophycocyanin derivative. […]
measurementKind: pIC50
Give only the number. pIC50 is defined as minus log10 of concentration in molar units.

Cc1cc(Oc2cccc(F)c2F)cc(F)c1-n1ncc(C(=O)c2cc3cc(F)c(NS(=O)(=O)N4CCOCC4)cc3[nH]2)c1N [Example 4-5-011]	8.80

Could you now look at the following compound, please?
Given the compound Cc1cc2cc(C(=O)c3cnn(-c4cnc(Oc5c(F)cccc5F)cc4C)c3N)[nH]c2cc1NS(=O)(=O)c1cccc(F)n1 [Example 5-1-516] and test system human Yes1 enzyme (Homo sapiens), the measured pIC50 is 8.29
